METHOD: Hemolytic activity in sheep erythrocytes incubated for 1 hr by absorbance based assay
Assay type: toxicity, cell-based, Ovis aries, Erythrocyte
Just so you know, the groups by HC50 at 1 h go like this: lower (below 60 µg/mL), middle (60 µg/mL to below 200 µg/mL), upper (200 µg/mL or more)

MOL: C=CCc1cc(-c2ccc(OCCC[N+](C)(C)CC(=O)NCCCC)c(CC=C)c2)c2oc(=S)n(Cc3cc(F)c(F)c(F)c3)c2c1.[Br-]
LABEL: lower

MOL: C=CCc1cc(-c2ccc(OCCC[N+](C)(C)CC(=O)NCCCC)c(CC=C)c2)c2oc(=S)n(Cc3c(Cl)cccc3Cl)c2c1.[Br-]
LABEL: upper

MOL: C=CCc1cc(-c2ccc(OCCC[N+](C)(C)CC(=O)NCCCC)c(CC=C)c2)c2oc(=S)n(Cc3ccc(Br)cc3)c2c1.[Br-]
LABEL: upper

MOL: C=CCc1cc(-c2ccc(OCCC[N+](C)(C)CC(=O)NCCCC)c(CC=C)c2)c2oc(=S)n(Cc3ccccc3Cl)c2c1.[Br-]
LABEL: upper

MOL: C=CCc1cc(-c2ccc(OCCC[N+](C)(C)CC(=O)NCCCC)c(CC=C)c2)c2oc(=S)n(Cc3ccc(Br)cc3Br)c2c1.[Br-]
LABEL: middle

MOL: C=CCc1cc(-c2ccc(OCCC[N+](C)(C)CC(=O)NCCCC)c(CC=C)c2)c2oc(=S)n(Cc3cccc(Cl)c3Cl)c2c1.[Br-]
LABEL: lower

MOL: C=CCc1cc(-c2ccc(OCCC[N+](C)(C)CC(=O)NCCCC)c(CC=C)c2)c2oc(=S)n(Cc3cc(Cl)cc(Cl)c3)c2c1.[Br-]
LABEL: lower

MOL: C=CCc1cc(-c2ccc(OCCC[N+](C)(C)CC(=O)NCCCC)c(CC=C)c2)c2oc(=S)n(Cc3ccc(F)cc3)c2c1.[Br-]
LABEL: middle

MOL: C=CCc1cc(-c2ccc(OCCC[N+](C)(C)CC(=O)NCCCC)c(CC=C)c2)c2oc(=S)n(Cc3ccc(F)c(F)c3)c2c1.[Br-]
LABEL: middle

MOL: C=CCc1cc(-c2ccc(OCCC[N+](C)(C)CC(=O)NCCCC)c(CC=C)c2)c2oc(=S)n(Cc3ccc(Cl)cc3Br)c2c1.[Br-]
LABEL: middle

MOL: C=CCc1cc(-c2ccc(OCCC[N+](C)(C)CC(=O)NCCCC)c(CC=C)c2)c2oc(=S)n(Cc3ccc(OC)cc3)c2c1.[Br-]
LABEL: lower

MOL: C=CCc1cc(-c2ccc(OCCC[N+](C)(C)CC(=O)NCCCC)c(CC=C)c2)c2oc(=S)n(Cc3ccc(F)c(Br)c3)c2c1.[Br-]
LABEL: lower

MOL: C=CCc1cc(-c2ccc(OCCC[N+](C)(C)CC(=O)NCCCC)c(CC=C)c2)c2oc(=S)n(Cc3ccc(Cl)cc3)c2c1.[Br-]
LABEL: upper
